All values here come from PubChem BioAssay (NCI).

test system: RXF 393 renal; test: NCI-60 one-dose screen, 48 h (100 = growth as untreated, 0 = no growth, -100 = all killed); details: 10 µM unless noted
About 83,000 compounds went through this panel and 20% of them were active in at least one assay; those are over-represented in the sample as a whole.
The label depends only on growth: rule met if it is at least 40%, rule not met if it is smaller.

Example entries and their recorded answers appear below.
- compound: "Nc1cccc(-c2ccc(COc3ccc(CC4SC(=O)NC4=O)cc3)cc2)c1 (stereo not given)"
  discrete-label: "rule met"
- compound: "CN1C(=O)N2CN3CCCN(C3)CN3C(=S)NC1C23 (stereo not given)"
  discrete-label: "rule met"
- compound: "Cc1ccc(S(=O)(=O)c2nc(-c3ccccc3)oc2SCC(N)=O)cc1"
  discrete-label: "rule met"
- compound: "COc1ccc(/C=C/C(c2cc(OC)c(OC)c(OC)c2)n2cncn2)cc1O (stereo not given)"
  discrete-label: "rule not met"
- compound: "CN(C)CCCn1c2c(c3ccncc3c1=O)C(=O)c1ccccc1-2"
  discrete-label: "rule not met"

Identify whether the reported growth of the following compound is 40% or greater: COc1ccc(-c2nc(SCC(=O)Nc3nc4ccc(C)cc4s3)[nH]c(=O)c2C#N)cc1OC
rule met

What would you report for Cc1c2ncccc2nc2[nH]c3ccc(OCCN(C)C)cc3c12 ?
rule not met

What would you report for OC1(c2ccccc2)c2ccccc2N(c2ccccc2)c2ccc(Cl)cc21 (stereo not given) ?
rule not met

What would you report for O=C(/C=C/c1ccccc1)c1ccc(-n2cc(CN3CCN(c4cc5c(cc4F)c(=O)c(C(=O)O)cn5C4CC4)CC3)nn2)cc1 ?
rule met

What would you report for COC(=O)/C=C1/SC(=Nc2ccc(F)cc2)N(CCc2c[nH]c3ccc(O)cc23)C1=O ?
rule not met
